# Test system: Huh-7
# protocol: CCK-8 cell viability, Huh-7 liver cancer cell line
# Type: cell-based, human
# run.parameters: serum-free medium, 24 hours, mean ± SD of 2 to 3 experiments
pIC50: −log10 of the molar value.
property.label: pIC50

>>> df
                                   compound  property_label  measured_number
0  O=C(Nc1ccc(-c2nc3ccccc3s2)cc1)C1CNC(c2ccccn2)=N1.[Cl][Pt][Cl] (stereo not shown) [Example L3Pt]           pIC50             3.76
1  NCC(N)C(=O)Nc1ccc(-c2nc3ccccc3s2)cc1.[Cl][Pt][Cl] (stereo not shown) [Example L1Pt]           pIC50             4.16
2  N.N.[Cl][Pt][Cl] [Cisplatin, cisplatin, reference compound]           pIC50             4.41
3  O=C(Nc1ccc(-c2nc3ccccc3s2)cc1)C1CN=Cc2ccccc2[O][Pt][O]c2ccccc2C=N1 (stereo not shown) [Example L2Pt]           pIC50             3.71
